Numbers sourced from paper PMC7583830.

ASSAY_EXPLANATION: Biodistribution in BALB/c mice
Assay type: in vivo
TEST_SETTINGS: female, BALB/c, mouse, heart, iv, 30 MBq, total radioactivity; 1 h p.i.; read-out: uptake in heart
Where a SMILES comes first, the peptide text is derived from it. [ ]: non-standard residue; d: D form. The star is where a group is joined. DOTA = O=C(O)CN1CCN(CC(=O)O)CCN(CC(=O)*)CCN(CC(=O)O)CC1; 1Nal = N[C@@H](Cc1cccc2ccccc12)C(=O)O; NMeNle = CCCC[C@H](NC)C(=O)O
EXPERIMENTAL_ENDPOINT: tissue uptake at 1 h (%ID/g)
Give just the numeric value; %ID/g need not be written.

Request: For the compound CCCC[C@@H](C(=O)N[C@@H](CC(=O)O)C(=O)N[C@@H](Cc1cccc2ccccc12)C(N)=O)N(C)C(=O)[C@H](Cc1c[nH]c2ccccc12)NC(=O)CNC(=O)[C@H](Cc1ccc(O)cc1)NC(=O)[C@@H]1CCCN1C(=O)[C@@H](CCC(=O)O)NC(=O)CN1CCN(CC(=O)O)CCN(CC(=O)O)CCN(CC(=O)O)CC1 [[^177Lu]Lu-1, metal not drawn] ({DOTA}-[dE]PYGW[NMeNle]D[1Nal]-NH2) , give its measured tissue uptake at 1 h value.
Response: 0.99
